Where a SMILES comes first, the peptide text is derived from it.
The compounds below have reported IC50 for UniProt P04439.
Write the value in µM as a bare number.

Request: Entry C[C@H](N)C(=O)N[C@@H](CO)C(=O)N[C@@H](Cc1ccccc1)C(=O)N[C@@H](CO)C(=O)N[C@@H](C)C(=O)N[C@@H](CO)C(=O)N[C@H](C(=O)NCC(=O)N[C@@H](Cc1ccc(O)cc1)C(=O)O)[C@@H](C)O (H-ASFSASTGY-OH) has what IC50?
Result: 2.37

Request: Entry CSCC[C@H](NC(=O)[C@H](CC(N)=O)NC(=O)[C@H](Cc1ccc(O)cc1)NC(=O)[C@H](CC(N)=O)NC(=O)[C@H](CC(=O)O)NC(=O)[C@H](Cc1ccc(O)cc1)NC(=O)[C@H](CC(N)=O)NC(=O)[C@@H](N)CCCCN)C(=O)N[C@@H](CCCCN)C(=O)O (H-KNYDNYNMK-OH) has what IC50?
Result: 2.51

Request: Entry CC[C@H](C)[C@H](NC(=O)[C@@H](N)CCCNC(=N)N)C(=O)N[C@@H](CO)C(=O)NCC(=O)N[C@@H](Cc1c[nH]c2ccccc12)C(=O)N[C@@H](CCCCN)C(=O)NCC(=O)N[C@@H](CC(=O)O)C(=O)N[C@@H](CC(N)=O)C(=O)N[C@@H](CCCCN)C(=O)O (H-RISGWKGDNK-OH) has what IC50?
Result: 0.548

Request: Entry CSCC[C@H](NC(=O)[C@@H](NC(=O)[C@H](CC(=O)O)NC(=O)[C@H](Cc1c[nH]cn1)NC(=O)[C@@H]1CCCN1C(=O)[C@H](CO)NC(=O)[C@H](CC(C)C)NC(=O)CN)[C@@H](C)O)C(=O)N[C@@H](CCC(N)=O)C(=O)N[C@@H](CCCCN)C(=O)O (H-GLSPHDTMQK-OH) has what IC50?
Result: 1.1
